# credit: ChEMBL document CHEMBL1201862

# Tested on: A498
# testDetails: NCI tumour cell line growth inhibition, 48 h
Active and inactive are the calls of the source. No stated cut-off is given here; in the data, active = GI50 up to about 1.1 µM and inactive = higher.
Readings of GI50 for the listed molecules
endpointName: GI50

• Cc1ccc(S(=O)(=O)N2CCN3C(=O)c4ccccc4C32c2ccc(F)cc2)cc1 (stereo unspecified) = 16.2 µM (inactive)
• Cc1ccc(S(=O)(=O)N/N=c2/sc3ccccc3n2C)cc1 = > 100 µM (inactive)
• O=C1Cc2c([nH]c3ccc(Cl)cc23)-c2ccccc2N1 = > 100 µM (inactive)
• Nc1ncnc2c1sc1nc3ccccc3n12 = > 61.7 µM (inactive)
• CC(=O)OC(C)(C)/N=N/c1ccc(Br)cc1 = > 87.5 µM (inactive)
• N#CC(C(=O)CCC(=O)Nc1ccc(Cl)cc1)c1ccccc1Cl (stereo unspecified) = > 100 µM (inactive)
• CCOC(=O)C/C(N)=C(\C#N)C(=O)OCC = > 100 µM (inactive)
• CCOc1cc(NC(C)=O)ccc1C(=O)N/N=C/c1ccco1 = 62.8 µM (inactive)
• C[C@H](C(O)CC(=O)C(C)(C)O)[C@H]1CC[C@@]2(C)[C@@H]3CC[C@H]4C(C)(C)[C@@H](OC5OC(COC6OC(CO)C(O)C(O)C6O)C(O)C(O)C5O)CC[C@]4(C)C3=CC[C@]12C (stereo partly specified) = > 100 µM (inactive)
• O=C(O)CCCc1ccc(N(CCCl)CCCl)cc1 = 125 µM (inactive)
• CCOc1cc(/C=C/C=C/C=C/c2ccc(N(C)C)cc2)[s+]c2ccccc12 = > 100 µM (inactive)
• O=[N+]([O-])c1cc2ncc(-c3ccccc3)c(O)c2cc1/C(Cl)=C/c1ccccc1 = 16.1 µM (inactive)
• FC(F)(F)c1ccc2c(c1)nc(Cc1ccccc1)n2C[C@@H]1CCCN2CCCCC12 (stereo partly specified) = 15.5 µM (inactive)
• C/C(=N/N)c1sc(-c2nc(C)c(/C(C)=N\N)s2)nc1C = > 100 µM (inactive)
• COC(=O)/C=C/c1ccc2c(c1)CC1(C2)Cc2cc3c(cc2C1=O)CCC3 (stereo unspecified) = > 100 µM (inactive)
• O=C(O)C(Sc1ccc(Cl)cc1)Sc1ccc(Cl)cc1 = 34.8 µM (inactive)
• NC(=O)CCSC(CC(=O)c1ccc(Cl)cc1)c1ccc(Cl)cc1 (stereo unspecified) = 22.5 µM (inactive)
• CN(C)c1ccc(C2ON=C(c3ccccc3)N2C23CC4CC(CC(C4)C2)C3)cc1 (stereo unspecified) = > 10 µM (inactive)
• Clc1ccc(-c2cn3c(nc4ccccc43)c(/C=C/c3cccs3)n2)cc1 = > 100 µM (inactive)
• CC(C)=C[C@H]1CCC2(OCCO2)[C@]1(C)COCc1ccccc1 = 23.7 µM (inactive)
• Cc1nc2c(o1)/C(=N\c1ccccc1)c1nc(C)oc1/C2=N/c1ccccc1 = 1.29 µM (inactive)

* * *

# System: SNB-75
# testDetails: NCI tumour cell line growth inhibition, 48 h
The source made the active and inactive calls. No stated cut-off is given here; in the data, active = GI50 up to about 1.1 µM and inactive = higher.
Readings of GI50 for the listed compounds
endpointName: GI50

• NNC(=O)c1ccccc1NC(=O)/C(=C/c1ccccc1)NC(=O)c1ccccc1 = 70.1 µM (inactive)
• O=C(Cn1c2ccc(Br)cc2c2nc3ccccc3nc21)N1CCOCC1 = 22.1 µM (inactive)
• COc1ccc(-n2nnc3c(C#N)c(-c4ccccc4)c(C)n3c2=O)cc1 = 27.1 µM (inactive)
• C[C@@H]1C[C@@H]2C(=O)N(c3ccccc3)C(=O)[C@@H]2c2[nH]c3ccc(Br)cc3c21 = 20.2 µM (inactive)
• CCCCCCCCCCCCCCCCOP(=O)(O)Oc1ccc(/C=C\c2ccc(OP(=O)(O)OCCCCCCCCCCCCCCCC)cc2)cc1 = 12 µM (inactive)
• N#Cc1ccc(/C=N/NC(=O)CSCC(=O)N/N=C/c2ccc(C#N)cc2)cc1 = 26.3 µM (inactive)
• CC1=C(C(=O)CC(=O)C(=O)Nc2ccccc2C(F)(F)F)Sc2ccccc2N1 = 4.23 µM (inactive)
• Cc1cnc(SCCN2CCN(C)CC2)nc1-c1cc2ccccc2s1 = 12.2 µM (inactive)
• Cc1ccc([S+]([O-])C[C@](NC(=O)OCc2ccccc2)(Sc2ccccc2)C(F)F)cc1 (some centres undefined) = 13.2 µM (inactive)
